target: Her2 Exon 20 INSYVMA Ba/F3 (Homo sapiens, UniProt P04626, DUP772-775, cells depend on it); assay: Her2 Exon 20 INSYVMA Ba/F3 CellTiter-Glo; type: cell-based; settings: CellTiter-Glo, 72 h, read-out: Her2 Exon 20 INSYVMA Ba/F3 CTG IC50
Sequence (P04626 with tags, fused parts or gaps DUP772-775): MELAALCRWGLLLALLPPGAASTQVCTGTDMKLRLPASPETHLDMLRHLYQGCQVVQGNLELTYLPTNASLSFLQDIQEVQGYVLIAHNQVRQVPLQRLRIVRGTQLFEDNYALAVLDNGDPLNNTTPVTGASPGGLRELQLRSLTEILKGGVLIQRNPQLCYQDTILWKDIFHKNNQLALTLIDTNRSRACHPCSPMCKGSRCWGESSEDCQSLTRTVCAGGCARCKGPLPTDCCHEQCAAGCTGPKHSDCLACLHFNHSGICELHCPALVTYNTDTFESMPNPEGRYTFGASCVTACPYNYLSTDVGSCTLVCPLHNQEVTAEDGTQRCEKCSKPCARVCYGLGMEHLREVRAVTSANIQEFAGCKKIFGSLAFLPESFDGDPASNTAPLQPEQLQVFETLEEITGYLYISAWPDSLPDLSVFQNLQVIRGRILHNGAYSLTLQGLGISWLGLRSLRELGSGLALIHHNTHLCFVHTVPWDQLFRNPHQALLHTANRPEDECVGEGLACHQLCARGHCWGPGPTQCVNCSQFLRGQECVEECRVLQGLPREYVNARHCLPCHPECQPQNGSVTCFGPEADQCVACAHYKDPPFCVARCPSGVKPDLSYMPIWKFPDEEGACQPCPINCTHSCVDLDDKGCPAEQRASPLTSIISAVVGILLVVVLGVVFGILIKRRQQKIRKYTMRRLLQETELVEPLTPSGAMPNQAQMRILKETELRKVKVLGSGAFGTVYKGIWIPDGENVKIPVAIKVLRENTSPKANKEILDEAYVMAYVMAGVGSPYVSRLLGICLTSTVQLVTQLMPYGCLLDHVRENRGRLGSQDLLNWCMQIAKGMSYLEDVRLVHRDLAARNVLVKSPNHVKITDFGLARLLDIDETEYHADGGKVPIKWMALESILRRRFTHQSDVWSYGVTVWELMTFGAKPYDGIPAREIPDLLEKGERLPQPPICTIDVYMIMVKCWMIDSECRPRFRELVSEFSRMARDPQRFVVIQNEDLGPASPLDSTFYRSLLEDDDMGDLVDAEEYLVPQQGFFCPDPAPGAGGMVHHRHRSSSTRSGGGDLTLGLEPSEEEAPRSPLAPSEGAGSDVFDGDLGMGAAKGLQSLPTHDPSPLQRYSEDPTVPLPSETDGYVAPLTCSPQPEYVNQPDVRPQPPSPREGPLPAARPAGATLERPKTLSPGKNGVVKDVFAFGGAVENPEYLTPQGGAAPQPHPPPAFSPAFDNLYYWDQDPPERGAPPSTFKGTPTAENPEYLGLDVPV
OBSERVABLE: GI50

Find the recorded GI50 belonging to C=CC(=O)Nc1cc(-c2c(-c3ccc(N4CCN(C)CC4)cc3)[nH]c3ncc(C(=O)NCc4ccc(CN5CCN(C)CC5)cc4)cc23)ccc1C and report it.
1000 to 10000 nM

Find the recorded GI50 belonging to C=CC(=O)Nc1cc(-c2c(-c3cccc(CN4CCN(C(C)=O)CC4)c3)[nH]c3ncc(C(=O)OC(C)C)cc23)ccc1C and report it.
1000 to 10000 nM

Find the recorded GI50 belonging to C=CC(=O)Nc1cc(-c2c(-c3ccc(N4CCN(C)CC4)cc3)[nH]c3ncc(CC(=O)O)cc23)ccc1C [Example 189, 2,2,2-trifluoroacetate] and report it.
> 10000 nM

Find the recorded GI50 belonging to C=CC(=O)N1CCc2ccc(-c3c(-c4ccc(OCCN5CCCC5)cc4)[nH]c4nccc(OCC)c34)cc21 and report it.
100 to 500 nM

Find the recorded GI50 belonging to C=CC(=O)Nc1cc(-c2c(-c3ccc(N4CCNCC4)cc3)[nH]c3nccc(Cl)c23)ccc1C [Example 96, 2,2,2-trifluoroacetate] and report it.
100 to 500 nM

Find the recorded GI50 belonging to C=CC(=O)Nc1cc(-c2c(-c3ccc(N4CCN(C)CC4)cc3)[nH]c3ncc(C(=O)OC4CC4)cc23)ccc1C and report it.
100 to 500 nM

Find the recorded GI50 belonging to C=CC(=O)Nc1cc(-c2c(-c3ccc(C4CCNCC4)cc3)[nH]c3nccc(Cl)c23)ccc1C and report it.
500 to 1000 nM

Find the recorded GI50 belonging to C=CC(=O)Nc1cc(-c2c(-c3cccc(C(=O)NCCCN4CCCC4)c3)[nH]c3nccc(Cl)c23)ccc1C and report it.
1000 to 10000 nM

Find the recorded GI50 belonging to C=CC(=O)Nc1cc(-c2c(-c3cccc(CN4CCN(C(C)=O)CC4)c3)[nH]c3ncccc23)ccc1C and report it.
1000 to 10000 nM

Find the recorded GI50 belonging to C=CC(=O)Nc1cc(-c2c(-c3ccc(N4CCN(C)CC4)cc3)[nH]c3ncc(C(=O)NCc4cccc(S(N)(=O)=O)c4)cc23)ccc1C and report it.
> 10000 nM

Find the recorded GI50 belonging to C=CC(=O)N1CCc2ccc(-c3c(-c4ccnc(N5CCN(C)CC5)c4)[nH]c4nccc(OC)c34)cc21 and report it.
≤ 100 nM

Find the recorded GI50 belonging to C=CC(=O)Nc1cc(-c2c(-c3ccc(CN4CCN(C)CC4)cc3)[nH]c3ncc(C(=O)OC(C)C)cc23)ccc1C and report it.
100 to 500 nM

Find the recorded GI50 belonging to C=CC(=O)Nc1cc(-c2c(-c3ccc(N4CCN(C)CC4)cc3)[nH]c3ncc(C(=O)O)cc23)ccc1C [Example 116, 2,2,2-trifluoroacetate] and report it.
> 10000 nM
